Experiment: Cytotoxicity against HELF cells assessed as after 3 days by Coulter counting analysis
Assay type: cell-based
Conditions: human, helf, 72 h
We begin with a simple list: items and their reported CC50.
measured.attribute: CC50 (µM)

INSERT INTO assay_data (compound, measured_attribute, limit_operator, meas_value) VALUES
  ('C[C@H](NC(=O)[C@@]1(Cc2ccccc2)CCN1C(=O)OCc1ccccc1)C(=O)NCc1ccccc1 (racemic)', 'CC50', '=', 42),
  ('CC(C)C[C@H](NC(=O)[C@@]1(Cc2ccccc2)CCN1C(=O)OCc1ccccc1)C(N)=O', 'CC50', '=', 66),
  ('CC(C)[C@H](NC(=O)[C@]1(Cc2ccccc2)CCN1C(=O)OCc1ccccc1)C(N)=O', 'CC50', '=', 100),
  ('CC(C)C[C@H](NC(=O)[C@]1(Cc2ccccc2)CCN1C(=O)OCc1ccccc1)C(N)=O', 'CC50', '=', 50),
  ('C[C@H](NC(=O)[C@]1(Cc2ccccc2)CCN1C(=O)OCc1ccccc1Cl)C(N)=O', 'CC50', '>', 100),
  ('C[C@H](NC(=O)[C@@]1(Cc2ccccc2)CCN1C(=O)OCc1ccccc1)C(=O)NC(C)(C)C (mixture of isomers)', 'CC50', '>', 100),
  ('C[C@@H](NC(=O)[C@@]1(Cc2ccccc2)CCN1C(=O)OCc1ccccc1)C(N)=O', 'CC50', '>', 100),
  ('C[C@H](NC(=O)[C@]1(Cc2ccccc2)CCN1C(=O)OCC1c2ccccc2-c2ccccc21)C(N)=O', 'CC50', '=', 14),
  ('C[C@@H](NC(=O)[C@]1(Cc2ccccc2)CCN1C(=O)OCc1ccccc1)C(N)=O', 'CC50', '=', 36),
  ('C[C@H](NC(=O)[C@]1(Cc2ccccc2)CCN1S(=O)(=O)c1ccc2ccccc2c1)C(N)=O', 'CC50', '>', 100),
  ('C[C@H](NC(=O)[C@H](Cc1ccccc1)NC(=O)OCc1ccccc1)C(=O)NC(C)(C)C', 'CC50', '>', 100),
  ('NC(=O)[C@H](Cc1ccccc1)NC(=O)[C@@]1(Cc2ccccc2)CCN1C(=O)OCc1ccccc1', 'CC50', '=', 37),
  ('C[C@H](NC(=O)[C@]1(Cc2ccccc2)CCN1C(=O)OCc1ccccc1)C(=O)N(C)C', 'CC50', '>', 100),
  ('C[C@H](NC(=O)[C@]1(Cc2ccccc2)CCN1C(=O)N[C@@H](C)c1ccccc1)C(N)=O', 'CC50', '>', 100),
  ('C[C@H](NC(=O)[C@]1(Cc2ccccc2)CCN1C(=O)NCc1ccccc1)C(N)=O', 'CC50', '>', 100),
  ('NC(=O)[C@H](CCC(=O)O)NC(=O)C1(Cc2ccccc2)CCN1C(=O)OCc1ccccc1 (mixture of isomers)', 'CC50', '>', 100),
  ('CC(C)[C@H](NC(=O)[C@@]1(Cc2ccccc2)CCN1C(=O)OCc1ccccc1)C(N)=O', 'CC50', '=', 85);

----------
Let's look at some molecules and their measured pIC50.
Test system: Human alphaherpesvirus 3
Experiment: Antiviral activity against Thymidine kinase-positive Varicella-zoster virus Oka infected in HELF assessed as virus-induced cytopathogenicity after 5 days by microscopy
Type: functional
Details: Human alphaherpesvirus 3, strain Oka vaccine, 120 h
pIC50: −log10 of the molar value.
measured.attribute: pIC50

INSERT INTO results (molecule, measured_attribute, limit_operator, meas_value) VALUES
  ('C[C@H](NC(=O)[C@]1(Cc2ccccc2)CCN1C(=O)OCc1ccc([N+](=O)[O-])cc1)C(N)=O', 'pIC50', '<', 4.00),
  ('C[C@H](NC(=O)[C@@]1(Cc2ccccc2)CCN1C(=O)OCc1ccccc1)C(=O)NC(C)(C)C (mixture of isomers)', 'pIC50', '=', 4.20),
  ('C[C@H](NC(=O)[C@]1(Cc2ccccc2)CCN1C(=O)Oc1ccccc1)C(N)=O', 'pIC50', '=', 4.16),
  ('CC(C)CNC(=O)[C@H](C)NC(=O)[C@]1(Cc2ccccc2)CCN1C(=O)OCc1ccccc1', 'pIC50', '<', 4.00),
  ('C[C@H](NC(=O)[C@]1(Cc2ccccc2)CCN1C(=O)Oc1cccc2ccccc12)C(N)=O', 'pIC50', '=', 4.32),
  ('C[C@H](NC(=O)[C@]1(Cc2ccccc2)CCN1S(=O)(=O)c1ccc2ccccc2c1)C(N)=O', 'pIC50', '<', 4.00);
